Answer each item with its documented MIC of selected lyases relative to Propionibacterium acnes.
tested on: Propionibacterium acnes; assay: MIC of selected lysin after single-step purification, Example 8; format: cell-based; settings: single-step purified lysin; clade IA2, strain 17
Give bare numbers, in µg/mL.

Solved entries:
PACL391: chimeric lysin, amino acid sequence SEQ ID NO: 259 (protein, PACL391) MTFIQAAHHSSGSNLPPTRVVIHATCPELGFPRASAKGRAVSTARYFQSAISGGSAHYVVDVGETVQCLAEDVIAWHAPPNSRSLGIEICADGGSATSFKNPNVRYSRAQWLSPQVWPAVLRAAALTRQMCQKYGIPVTKLSASDLKAGKKGICGHVDVSNAWHQSDHDDPGPDFPWAEFMAAVKGGATNPGGEVRTPGQQDTKPSVPTPSLTEIGDQDMNGCYYNLNSKTRTYLIFDSRSGFYHEFSQGNGNGPMSPDYVNPIAKGWDTGSWPAISPGHAKVLKAALDKVRKGI: 32
PACL10: phage lysin, amino acid sequence SEQ ID NO: 10; 29.4 kDa (protein, PACL10, 29.4 kDa) MTFIQAAHHSSGSNLPPTRVVIHATCPELGFPRASAKGRAVSTARYFQSAISGGSAHYVVDVGETVQCLAEDVIAWHAPPNSRSLGIEICADGGSATSFKNPNVRYSRAQWLSPQVWPAVLRAAALTRQMCQKYGIPVTKLSASDLKAGKKGICGHVDVSNAWHQSDHDDPGPDFPWAEFMAAVKGGATNPDELELTVSQFSDLTKRLQGMQEQTHHDLGVVQTKLATMDTVKNPRTGAKWSLKDAIWSIWYYVLENRDRIAALEKKVK: 8

For the 4 molecules below, give their MIC of selected lyases relative to Propionibacterium acnes values.
1. PACL403: chimeric lysin, amino acid sequence SEQ ID NO: 271 (protein, PACL403) MTFIQAKHHGGHNNPPVTRLVIHATCPDVGYPSASRAGRAVSTAHYFQETTRPASAHYICDISTTVQCLSEETVGYHAPPNSHSIGIEICADGGSHASFSNPAHAYTREQWLSPQVWPAVERAAMLARGICQRHNIPIRRLSIADVKAGKRGICGHNEVSEAFHQSDHDDPGPYFPWDGFIALVNGHSAPSRQEELTVSDGGEVRTPGQQDTKPSVPTPSLTEIGDQDMNGCYYNLNSKTRTYLIFDSRSGFYHEFSQGNGNGPMSPDYVNPIAKGWDTGSWPAISPGHAKVLKAALDKVRKGI
2. PACL392: chimeric lysin, amino acid sequence SEQ ID NO: 260 (protein, PACL392) MTFIQAAHHSSGSNLPPTRVVIHATCPELGFPRASAKGRAVSTARYFQSAISGGSAHYVVDVGETVQCLAEDVIAWHAPPNSRSLGIEICADGGSATSFKNPNVRYSRAQWLSPQVWPAVLRAAALTRQMCQKYGIPVTKLSASDLKAGKKGICGHVDVSNAWHQSDHDDPGPDFPWAEFMAAVKGGATNPGGPGQQDTKPSVPTPSLTEIGDQDMNGCYYNLNSKTRTYLIFDSRSGFYHEFSQGNGNGPMSPDYVNPIAKGWDTGSWPAISPGHAKVLKAALDKVRKGI
3. PACL390: chimeric lysin, amino acid sequence SEQ ID NO: 258 (protein, PACL390) MTFIQAAHHSSGSNLPPTRVVIHATCPEMGFPKASAKGRAVSTARYFQSASSGGSAHYVVDIGETVQCLGENVIAWHAPPNAHSLGIEICADGGSATSFSNPKVRYTRAQWLSPQVWPAVLRAAALTRKMCSKYGIPVVKLSASDLKAGKKGICGHVDVSNAFHQSDHDDPGPDFPWAEFMAAVKGGPGQQDTKPSVPTPSLTEIGDQDMNGCYYNLNSKTRTYLIFDSRSGFYHEFSQGNGNGPMSPDYVNPIAKGWDTGSWPAISPGHAKVLKAALDKVRKGI
4. PACL404: chimeric lysin, amino acid sequence SEQ ID NO: 272 (protein, PACL404) MTFIQAAHHSSGSNLPPTRVVIHATCPEMGFPKASAKGRAVSTARYFQSASSGGSAHYVVDIGETVQCLGENVIAWHAPPNAHSLGIEICADGGSATSFSNPKVRYTRAQWLSPQVWPAVLRAAALTRKMCSKYGIPVVKLSASDLKAGKKGICGHVDVSNAFHQSDHDDPGPDFPWAEFMAAVKGGTTTQEDEDEMKEAGGPGQQDTKPSVPTPSLTEIGDQDMNGCYYNLNSKTRTYLIFDSRSGFYHEFSQGNGNGPMSPDYVNPIAKGWDTGSWPAISPGHAKVLKAALDKVRKGI

Result block:
1: 8; 2: 16; 3: 8; 4: 8
